Observed log10 of Ki values for Sodium-dependent dopamine transporter (Homo sapiens, UniProt Q01959) are listed in what follows.
ASSAY READOUT: log10 of Ki (log10 of the value in nM)

> print(dat)
                              smiles.record  value.reported
1  Fc1ccc(C(OCCC2CCN(C/C=C/c3ccco3)CC2)c2ccc(F)cc2)cc1            0.00
2  Fc1ccc(C(OCCC2CCN(C/C=C/c3cccs3)CC2)c2ccc(F)cc2)cc1            0.11
3  Fc1ccc(C(OCCC2CCN(Cc3cccc4ccccc34)CC2)c2ccc(F)cc2)cc1            1.20
4  Fc1ccc(C(OCCC2CCN(CCCc3ccccc3)CC2)c2ccc(F)cc2)cc1            0.04
5  Fc1ccc(C(OCCC2CCN(C/C=C/c3ccccc3)CC2)c2ccc(F)cc2)cc1           -0.35

====

- TEST SYSTEM: Sodium-dependent dopamine transporter (Homo sapiens)
- Sequence (Q01959 whole entry): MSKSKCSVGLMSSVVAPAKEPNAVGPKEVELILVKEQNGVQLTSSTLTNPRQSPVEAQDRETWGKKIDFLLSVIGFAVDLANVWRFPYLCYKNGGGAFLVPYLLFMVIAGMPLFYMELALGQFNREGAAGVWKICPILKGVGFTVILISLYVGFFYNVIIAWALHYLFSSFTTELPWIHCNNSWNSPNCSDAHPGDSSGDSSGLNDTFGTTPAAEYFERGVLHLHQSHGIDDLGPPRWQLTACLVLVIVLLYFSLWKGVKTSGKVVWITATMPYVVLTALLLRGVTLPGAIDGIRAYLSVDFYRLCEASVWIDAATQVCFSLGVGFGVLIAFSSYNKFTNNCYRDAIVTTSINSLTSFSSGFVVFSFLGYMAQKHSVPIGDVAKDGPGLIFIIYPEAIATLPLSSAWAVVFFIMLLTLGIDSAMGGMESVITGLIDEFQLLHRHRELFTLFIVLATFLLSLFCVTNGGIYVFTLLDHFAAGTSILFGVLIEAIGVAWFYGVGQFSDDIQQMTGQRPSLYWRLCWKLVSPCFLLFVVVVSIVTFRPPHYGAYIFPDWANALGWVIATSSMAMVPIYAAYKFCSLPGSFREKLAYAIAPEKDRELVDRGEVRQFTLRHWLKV
- TEST DETAILS: Compound was tested for the inhibition of dopamine (DA) reuptake
pIC50: −log10 of the molar value.
ASSAY READOUT: pIC50

> print(dat)
                              smiles.record                               test.system  assay.readout  value.reported
1  Fc1ccc(C(OCCC2CCN(Cc3cc4ccccc4s3)CC2)c2ccc(F)cc2)cc1  Sodium-dependent dopamine transporter (Homo sapiens)          pIC50            7.92
2  Fc1ccc(C(OCCC2CCN(Cc3ccc4ccccc4c3)CC2)c2ccc(F)cc2)cc1  Sodium-dependent dopamine transporter (Homo sapiens)          pIC50            8.14

====

- TEST SYSTEM: Sodium-dependent serotonin transporter (Homo sapiens, UniProt P31645)
- TEST DETAILS: Ratio of Ki value towards Serotonin transporter (SERT) to that of Dopamine transporter (DAT)
- Sequence (P31645 whole entry, looked up): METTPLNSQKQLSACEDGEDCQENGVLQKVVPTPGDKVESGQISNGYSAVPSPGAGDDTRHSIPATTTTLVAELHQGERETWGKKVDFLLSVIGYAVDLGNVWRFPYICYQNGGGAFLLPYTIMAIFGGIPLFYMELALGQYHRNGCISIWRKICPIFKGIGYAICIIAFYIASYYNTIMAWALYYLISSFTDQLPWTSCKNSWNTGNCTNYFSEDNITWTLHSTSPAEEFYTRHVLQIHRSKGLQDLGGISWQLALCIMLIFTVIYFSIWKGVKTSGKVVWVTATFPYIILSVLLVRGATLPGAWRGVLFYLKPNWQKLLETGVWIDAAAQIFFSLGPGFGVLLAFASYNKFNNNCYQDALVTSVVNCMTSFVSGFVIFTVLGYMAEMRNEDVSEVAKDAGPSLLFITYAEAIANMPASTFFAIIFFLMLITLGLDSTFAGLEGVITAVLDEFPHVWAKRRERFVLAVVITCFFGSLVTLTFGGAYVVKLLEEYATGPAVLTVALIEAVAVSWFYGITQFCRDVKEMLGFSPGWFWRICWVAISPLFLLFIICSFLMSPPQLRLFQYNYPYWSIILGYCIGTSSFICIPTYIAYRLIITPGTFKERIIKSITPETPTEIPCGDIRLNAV
ASSAY READOUT: Ratio

> print(dat)
                               smiles.record  assay.readout  value.reported
 1  Fc1ccc(C(OCCC2CCN(Cc3cc4ccccc4o3)CC2)c2ccc(F)cc2)cc1          Ratio              84
 2  Fc1ccc(C(OCCC2CCN(Cc3ccc4ccccc4c3)CC2)c2ccc(F)cc2)cc1          Ratio             323
 3  Fc1ccc(C(OCCC2CCN(C/C=C/c3cccs3)CC2)c2ccc(F)cc2)cc1          Ratio              35
 4  Fc1ccc(C(OCCC2CCN(Cc3cc4ccccc4[nH]3)CC2)c2ccc(F)cc2)cc1          Ratio             121
 5  Fc1ccc(C(OCCC2CCN(CC#Cc3ccccc3)CC2)c2ccc(F)cc2)cc1          Ratio              31
 6  Fc1ccc(C(OCCC2CCN(Cc3cccc4ccccc34)CC2)c2ccc(F)cc2)cc1          Ratio              23
 7  Fc1ccc(C(OCCC2CCN(CCCc3ccccc3)CC2)c2ccc(F)cc2)cc1          Ratio              65
 8  Fc1ccc(C(OCCC2CCN(C/C=C/c3ccco3)CC2)c2ccc(F)cc2)cc1          Ratio              41
 9  Fc1ccc(C(OCCC2CCN(Cc3cc4ccccc4s3)CC2)c2ccc(F)cc2)cc1          Ratio             153
10  Fc1ccc(C(OCCC2CCN(C/C=C/c3ccccc3)CC2)c2ccc(F)cc2)cc1          Ratio             104

====

Below, each entry is listed with its recorded IC50.
- TEST SYSTEM: UniProtKB P31645
- TEST DETAILS: Compound was tested for the inhibition of serotonin (5-HT) reuptake
- Sequence (P31645 whole entry): as the sequence (P31645 whole entry, looked up) above
ASSAY READOUT: IC50 (nM)

> print(dat)
                              smiles.record  units.text  value.reported
1  Fc1ccc(C(OCCC2CCN(Cc3cc4ccccc4s3)CC2)c2ccc(F)cc2)cc1          nM            1040
2  Fc1ccc(C(OCCC2CCN(Cc3ccc4ccccc4c3)CC2)c2ccc(F)cc2)cc1          nM             277

====

- TEST SYSTEM: Sodium-dependent serotonin transporter (Homo sapiens, UniProt P31645)
Label key: t means Ki under 200 nM; f means Ki of 200 nM or more.

> print(dat)
                               smiles.record  group.label
 1  Fc1ccc(C(OCCC2CCN(C/C=C/c3cccs3)CC2)c2ccc(F)cc2)cc1            t
 2  Fc1ccc(C(OCCC2CCN(Cc3ccc4ccccc4c3)CC2)c2ccc(F)cc2)cc1            f
 3  Fc1ccc(C(OCCC2CCN(CCCc3ccccc3)CC2)c2ccc(F)cc2)cc1            t
 4  Fc1ccc(C(OCCC2CCN(C/C=C/c3ccccc3)CC2)c2ccc(F)cc2)cc1            t
 5  Fc1ccc(C(OCCC2CCN(Cc3cc4ccccc4o3)CC2)c2ccc(F)cc2)cc1            t
 6  Fc1ccc(C(OCCC2CCN(Cc3cc4ccccc4s3)CC2)c2ccc(F)cc2)cc1            f
 7  Fc1ccc(C(OCCC2CCN(CC#Cc3ccccc3)CC2)c2ccc(F)cc2)cc1            t
 8  Fc1ccc(C(OCCC2CCN(C/C=C/c3ccco3)CC2)c2ccc(F)cc2)cc1            t
 9  Fc1ccc(C(OCCC2CCN(Cc3cc4ccccc4[nH]3)CC2)c2ccc(F)cc2)cc1            t
10  Fc1ccc(C(OCCC2CCN(Cc3cccc4ccccc34)CC2)c2ccc(F)cc2)cc1            f
